test system: KB; experiment: In vitro cytotoxicity against human P-glycoprotein-expressing epidermoid carcinoma of the nasopharynx (KB-VIN) cell line; type: functional; conditions: read-out: ED50 (the source's name)
Exercise: state measured EC50 for each of the compounds provided.
Numeric answer only, unit µg/mL assumed.

Query :: Record request: EC50 value, item Nc1cc2c(cc1C(=O)C1OC1c1ccccc1F)OCO2 (centres undefined)
Result :: 2.3

Query :: Any idea what its EC50 is? The compound is Nc1cc2c(cc1C(=O)/C=C/c1ccc(F)cc1)OCO2
Result :: 2.2

Query :: I have this compound here, COc1cccc(/C=C/C(=O)c2cc3c(cc2N)OCO3)c1 , and I need its recorded EC50.
Result :: 0.3

Query :: May I ask what EC50 has been recorded for COc1cccc(C2OC2C(=O)c2cc3c(cc2N)OCO3)c1 (centres undefined) ?
Result :: 1.3

Query :: What value of EC50 has been reported for the following compound? COc1cccc(/C=C/C(=O)c2ccccc2N)c1
Result :: 0.3

Query :: Query (compound): Cc1ccccc1C1OC1C(=O)c1ccccc1N (centres undefined) ; field requested: EC50
Result :: 11.5

Query :: Please report the recorded EC50 for COc1cccc(/C=C/C(=O)c2ccc3c(c2)OCO3)c1 .
Result :: 14

Query :: Entry Nc1cc2c(cc1C(=O)/C=C/c1ccccc1F)OCO2 has what EC50?
Result :: 0.95

Query :: Name the reported EC50 value associated with the compound Cc1ccccc1/C=C/C(=O)c1ccccc1N
Result :: 1.25
